- Test system: tet operator sequence
- protocol-description: β-galactosidase activity of a tetracycline-regulated promoter in transformed E. coli with revTetR, in the presence and absence of anhydrotetracycline (atc)
- Type: cell-based, Escherichia coli
- assay-conditions: RevTetR isolate cultured in the presence of anhydrotetracycline (ATC)
measured-property: β-Galactosidase Activity, Cultured With ATC
Write the value as a bare number.

I'd like to know its β-Galactosidase Activity, Cultured With ATC. The molecule in question is TetRrevAtc4-23: revTetR(BD) A50D L51V L52Q A54A L55L A61S (protein, Modified tetracycline repressor, revTetR(BD) A50D L51V L52Q A54A L55L A61S) MSRLDKSKVINSALELLNEVGIEGLTTRKLAQKLGVEQPTLYWHVKNKRDVQDALAVEILSRHHDYSLPAAGESWQSFLRNNAMSFRRALLRYRDGAKVHLGTRPDEKQYDTVETQLRFMTENGFSLRDGLYAISAVSHFTLGAVLEQQEHTAALTDRPAAPDENLPPLLREALQIMDSDDGEQAFLHGLESLIRGFEVQLTALLQIV 21.606

I'd like to know its β-Galactosidase Activity, Cultured With ATC. The molecule in question is TetRrevAD3/9: revTetR(BD) E15Q L17L L55M I59R (protein, Modified tetracycline repressor, revTetR(BD) E15Q L17L L55M I59R) MSRLDKSKVINSALQLLNEVGIEGLTTRKLAQKLGVEQPTLYWHVKNKRALLDAMAVERLARHHDYSLPAAGESWQSFLRNNAMSFRRALLRYRDGAKVHLGTRPDEKQYDTVETQLRFMTENGFSLRDGLYAISAVSHFTLGAVLEQQEHTAALTDRPAAPDENLPPLLREALQIMDSDDGEQAFLHGLESLIRGFEVQLTALLQIV 4.2427
